EXPERIMENTAL_TARGET: Kallikrein-3 (Homo sapiens, UniProt P07288)
Sequence (P07288 25-261, species assumed): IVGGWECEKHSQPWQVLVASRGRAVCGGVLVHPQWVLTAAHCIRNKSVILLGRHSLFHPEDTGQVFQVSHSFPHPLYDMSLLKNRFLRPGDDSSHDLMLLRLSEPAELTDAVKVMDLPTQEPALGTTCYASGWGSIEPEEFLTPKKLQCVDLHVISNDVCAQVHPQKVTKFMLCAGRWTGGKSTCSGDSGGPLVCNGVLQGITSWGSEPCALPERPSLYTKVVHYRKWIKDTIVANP
PROCEDURE_DETAILS: FRET peptide cleavage efficiency with Kallikrein-3
Format: biochemical
CONDITION_SET: t = 8 h; peptide 200 uM, Kallikrein-3 2 μg/ml, 37° C., pH 8
Square brackets hold non-standard residues; d marks the D form. Ends that are not written are not given here. Tyr(3-NO2) = N[C@@H](Cc1ccc(O)c([N+](=O)[O-])c1)C(=O)O; 2Abz = Nc1ccccc1C(=O)O
Tag: met if measured Kallikrein-3 t = 8 h % cleavage is not below 80%, not met if it is.

Sample answers from the record:
{"SUBSTANCE": "RGRRHSSKLQ ([2Abz]RGRRHSSKLQ[Tyr(3-NO2)]-NH2) [LNK052]", "EXPERIMENTAL_TARGET": "Kallikrein-3 (Homo sapiens, UniProt P07288)", "CLASS_NAME": "not met"}
{"SUBSTANCE": "GSSYYSGA ([2Abz]GSSYYSGA[Tyr(3-NO2)]-NH2) [LNK079]", "EXPERIMENTAL_TARGET": "Kallikrein-3 (Homo sapiens, UniProt P07288)", "CLASS_NAME": "met"}
{"SUBSTANCE": "RRLNYSL ([2Abz]RRLNYSL[Tyr(3-NO2)]-NH2) [LNK074]", "EXPERIMENTAL_TARGET": "Kallikrein-3 (Homo sapiens, UniProt P07288)", "CLASS_NAME": "met"}
{"SUBSTANCE": "RSSYRSL ([2Abz]RSSYRSL[Tyr(3-NO2)]-NH2) [LNK075]", "EXPERIMENTAL_TARGET": "Kallikrein-3 (Homo sapiens, UniProt P07288)", "CLASS_NAME": "met"}

[Q] State whether the measured Kallikrein-3 t = 8 h % cleavage reaches 80%, counting equality as reaching it, for KSKQHSL ([2Abz]KSKQHSL[Tyr(3-NO2)]-NH2) [LNK077]
[A] not met

[Q] Kindly determine if Kallikrein-3 t = 8 h % cleavage recorded for SSLYSSPG ([2Abz]SSLYSSPG[Tyr(3-NO2)]-NH2) [LNK065] is above or exactly 80%.
[A] met

[Q] In plain terms: is recorded Kallikrein-3 t = 8 h % cleavage at least 80% for ISQYSSAT ([2Abz]ISQYSSAT[Tyr(3-NO2)]-NH2) [LNK070] ?
[A] not met

[Q] Please check the record SQLYSSPG ([2Abz]SQLYSSPG[Tyr(3-NO2)]-NH2) [LNK068] and state if its Kallikrein-3 t = 8 h % cleavage is at or above 80%.
[A] met
